Reported S: Solubility values follow for various molecules
Experiment: Kinetic solubility in water and bio-relevant media (SGF, FaSSIF, FeSSIF) at RT
Type: physicochemical
Conditions: Water, RT, 4 hrs
Experimental: After being centrifuged and separated using 0.45 μm Nylon filter, filtrates were collected for HPLC and pH test, and wet cakes for XRPD characterization. If clear solutions were obtained after 24 hours, accurate concentration and purity were measured for the solutions.
Give just the numeric value; µg/mL need not be written.

Molecule | Reported
CCOCc1nc2c(N)nc3ccccc3c2n1CC(C)(C)O [Adipate Type A, resiquimod] | 2800

So for CCOCc1nc2c(N)nc3ccccc3c2n1CC(C)(C)O [Maleate Type A, resiquimod] , the logged S: Solubility turned out to be 1100

Per the record, CCOCc1nc2c(N)nc3ccccc3c2n1CC(C)(C)O [Freebase Type A] has S: Solubility of 500
